# credit: patent US11414416B1

biological target: Nanoluciferase-BRD9 fusion protein (Homo sapiens (Human)); experiment: SYO1 BRD9 NanoLuc degradation assay; assay type: cell-based; details: Table 5C; SYO-1 cells expressing 3×FLAG-NLuc-BRD9, 6 hours; read-out: SYO1 BRD9-NanoLuc degradation IC50
Sequence (Q9H8M2 whole entry, the tested form may be a part): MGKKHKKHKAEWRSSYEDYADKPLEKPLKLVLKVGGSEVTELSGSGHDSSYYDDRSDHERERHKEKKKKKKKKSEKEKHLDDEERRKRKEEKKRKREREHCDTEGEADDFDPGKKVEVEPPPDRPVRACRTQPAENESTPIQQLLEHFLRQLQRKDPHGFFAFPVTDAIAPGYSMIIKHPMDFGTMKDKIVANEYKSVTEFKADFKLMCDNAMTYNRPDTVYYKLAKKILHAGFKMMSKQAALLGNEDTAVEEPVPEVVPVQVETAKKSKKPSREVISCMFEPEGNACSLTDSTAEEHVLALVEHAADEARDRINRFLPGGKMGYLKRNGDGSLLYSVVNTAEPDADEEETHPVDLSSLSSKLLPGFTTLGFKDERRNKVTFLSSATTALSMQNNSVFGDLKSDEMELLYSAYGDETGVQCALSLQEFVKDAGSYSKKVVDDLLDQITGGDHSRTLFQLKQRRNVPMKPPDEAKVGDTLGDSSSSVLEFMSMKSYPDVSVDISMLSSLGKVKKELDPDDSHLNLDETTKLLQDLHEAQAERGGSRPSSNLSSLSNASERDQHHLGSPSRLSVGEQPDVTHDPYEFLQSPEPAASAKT
Measured Attribute: DC50

[
  {
    "Compound": "COc1cc(-c2cn(C)c(=O)c3nn(C)cc23)cc(OC)c1CN1CCC2(CC1)CN(c1ccc3c(c1)C(=O)N(C1CCC(=O)NC1=O)C3)C2 (centres unmarked)",
    "DC50": "< 10 nM"
  },
  {
    "Compound": "COc1cc(-c2cc(C(F)F)c(=O)n(C)c2)cc(OC)c1CN1CCC(C#Cc2ccc3c(c2)C(=O)N(C2CCC(=O)NC2=O)C3)CC1 (centres unmarked)",
    "DC50": "< 10 nM"
  },
  {
    "Compound": "COc1cc(-c2cn(C)c(=O)c3cnn(C)c23)cc(OC)c1CN1CCC2(CC1)CN(c1ccc3c(c1)C(=O)N(C1CCC(=O)NC1=O)C3=O)C2 (centres unmarked)",
    "DC50": "< 10 nM"
  }
]

(Q) Look up DC50 for this compound: COc1cc(-c2cc(C(F)F)c(=O)n(C)c2)cc(OC)c1CN1CCC2(C1)CN(c1ccn3c(=O)n(C4CCC(=O)NC4=O)nc3c1)C2 (centres unmarked)
(A) 10 to 100 nM

(Q) Please answer likewise for COc1cc(-c2cn(C)c(=O)c3cnccc23)cc(OC)c1CN1CCC2(CC1)CN(c1ccc3c(c1)C(=O)N(C1CCCNC1=O)C3)C2 (centres unmarked)
(A) > 1000 nM

(Q) Please answer likewise for COc1cc(-c2cn(C)c(=O)c3cnccc23)cc(OC)c1CN1CC(Oc2ccc3c(c2)CN(C2CCC(=O)N(COC(=O)[C@@H](N)C(C)C)C2=O)C3=O)C1 (some centres unmarked)
(A) < 10 nM

(Q) Please answer likewise for [2H]C([2H])([2H])n1cc(-c2cc(OC)c(CN3[C@H](C)CN(c4ccc5c(c4)C(=O)N(C4CCC(=O)NC4=O)C5)C[C@H]3C)c(OC)c2)c2nn(C)cc2c1=O (some centres unmarked)
(A) < 10 nM

(Q) Please answer likewise for COc1cc(-c2cn(C)c(=O)cn2)cc(OC)c1CN1CCC2(CC1)CN(c1ccc3c(c1)C(=O)N(C1CCC(=O)NC1=O)C3)C2 (centres unmarked)
(A) > 1000 nM

(Q) Please answer likewise for COc1cc(-c2cn(C)c(=O)c3cnccc23)cc(OC)c1CN1CCC2(CC1)CN(c1ccnc(C(=O)NC3CCC(=O)NC3=O)n1)C2 (centres unmarked)
(A) 100 to 1000 nM

(Q) Please answer likewise for COc1cc(-c2cc(C(F)F)c(=O)n(C)c2)cc(OC)c1-c1ccc2c(c1)C(=O)N(C1CCC(=O)NC1=O)C2 (centres unmarked)
(A) 10 to 100 nM
